Conditions: 298.15 K; 101.33 kPa; Liquid; Vibrating tube method
Observation type: mass density (kg/m3)

Lookup: // Input: COC(C)(C)C . Output its mass density only.
Found: 735.69

Lookup: Return reported mass density. Input compound: CCCCCCCCCCCC
Found: 745.38

Lookup: Answer with the recorded mass density for the compound listed here: CCCCCCCCCC
Found: 726.31

Lookup: Consider the compound CCC(C)CC . State its measured mass density.
Found: 660.3
